system: SN12C renal; test: NCI-60 one-dose screen, 48 h (100 = growth as untreated, 0 = no growth, -100 = all killed); details: 10 µM unless noted
Compounds without any hit were thinned out: in the full panel of roughly 83,000, 20% have a hit.
Please respond with reported growth for every item in the list.
One number for each entry, in %.

Here are 3 molecules together with their reported answers.
>  <MOLECULE>
O=C1C(=O)N(Cc2ccc(-c3ccccc3)cc2)c2ccc(OC(F)(F)F)cc21

>  <ENDPOINT LABEL>
growth

>  <RESULT VALUE>
21.2

$$$$
>  <MOLECULE>
C=CC[Se]C(=O)Cc1c(C)n(C(=O)c2ccc(Cl)cc2)c2ccc(OC)cc12

>  <ENDPOINT LABEL>
growth

>  <RESULT VALUE>
-30.4

$$$$
>  <MOLECULE>
NC(=O)c1cc(I)ccc1NC(=O)/C=C/c1ccccc1

>  <ENDPOINT LABEL>
growth

>  <RESULT VALUE>
31.5

$$$$

Value sought for every listed molecule: growth.
1. O=C(O)CCN1C(=O)/C(=C/C(Cl)=C/c2ccccc2)SC1=S
2. CCOC(=O)c1ccc(NC(=O)c2nc(-c3cc(OC)c(OC)c(OC)c3)n(-c3ccc(Cl)cc3)n2)cc1

Solution:
1. 11.9
2. 85.2

Value sought for every listed molecule: growth.
1. CC(=O)O[C@H]1CC2CCC3C(CC[C@@]4(C)C3C[C@H]([N+]3(C)CCCCC3)[C@@H]4OC(C)=O)[C@@]2(C)C[C@@H]1N1CCCCC1 (some centres undefined)
2. CCO/C=N/C1=C(C#N)C(c2ccc(Cl)cc2)c2sc3c(F)cccc3c2O1 (centres undefined)
3. CN(C)S(=O)(=O)c1cccc(C(=O)Nc2nc(-c3ccc(F)c(F)c3)cs2)c1
4. CS(=O)(=O)Nc1cncc(-c2ccc3ncnc(Nc4cncc(Cl)c4)c3c2)c1

Solution:
1. 93
2. 79.7
3. 62.9
4. 84.3

====

system: NCI-H226 lung; test: NCI-60 one-dose screen, 48 h (100 = growth as untreated, 0 = no growth, -100 = all killed); conditions: 10 µM unless noted
The panel holds about 83,000 compounds, 20% with a hit somewhere; the sample as a whole holds those more often.
Please respond with reported growth for every item in the list.
Numbers only, in %.

Here are 5 molecules together with their reported answers.
>  <MOLECULE>
CCc1ccccc1-n1c(-c2ccc(OC)cc2)cc(-c2ccc(OC)cc2)c(C#N)c1=O

>  <ENDPOINT LABEL>
growth

>  <RESULT VALUE>
95.9

$$$$
>  <MOLECULE>
N#Cc1ccc(O)c(C2=NCC(c3ccccc3)O2)c1 (centres undefined)

>  <ENDPOINT LABEL>
growth

>  <RESULT VALUE>
68

$$$$
>  <MOLECULE>
COc1cc2c(cc1OCCCN1CCN(CCCOc3cc4c(cc3OC)C(=O)N3CC(F)(F)C[C@H]3C=N4)CC1)N=C[C@@H]1CC(F)(F)CN1C2=O

>  <ENDPOINT LABEL>
growth

>  <RESULT VALUE>
95.5

$$$$
>  <MOLECULE>
COc1cccc(/C=C2\COc3ccc(O)c(O)c3C2=O)c1

>  <ENDPOINT LABEL>
growth

>  <RESULT VALUE>
79.1

$$$$
>  <MOLECULE>
Cc1ccc2c(n1)C(=O)C(Br)=C(C1CCCC1)C2=O

>  <ENDPOINT LABEL>
growth

>  <RESULT VALUE>
94.3

$$$$

Value sought for every listed molecule: growth.
1. O=C(CN1C(=O)S/C(=C\C(Cl)=C\c2ccccc2)C1=O)NCCc1ccc(O)cc1
2. CCOC(=O)n1cc(-c2nonc2-c2cn(C(=O)OCC)c3ccc(Br)cc23)c2ccccc21
3. COc1cc(-c2cncn2-c2ccc(-c3nc4ccc(F)cc4s3)cc2)ccc1F
4. CC1CN(S(=O)(=O)c2oc(-c3ccc(Cl)cc3)nc2C#N)CC(C)O1 (centres undefined)
5. N=C(N)c1ccc(-c2ccc(-c3ccc(Cl)c(Cl)c3)s2)nc1
6. O=C(Nc1ccccc1O)c1ccc(CNC(=O)c2sccc2Nc2ccnc(C(F)(F)F)c2)cc1
7. COc1ccc(/C=N\Nc2nc(SCCC(C)C)nc(-c3ccc(OC)cc3)c2C#N)cc1

Solution:
60.1
79.4
85.2
87.4
86.9
54.8
88.9

Value sought for every listed molecule: growth.
1. Clc1ccc2c(c1)C(c1c[nH]c3ccccc13)(c1c[nH]c3ccccc13)CCO2
2. COc1ccc(OC)c(Nc2nnc(-c3ccc(O)c(OC)c3)o2)c1
3. CC/C=C\C[C@H](O)C/C=C1/C(=O)C=C[C@@H]1C/C=C\CCCC(=O)N(C)C

Solution:
[79.7, 77.1, -51.3]

====

Please respond with reported growth for every item in the list.
system: MDA-MB-435 melanoma; experiment: NCI-60 one-dose screen, 48 h (100 = growth as untreated, 0 = no growth, -100 = all killed); settings: 10 µM unless noted
About 83,000 compounds went through this panel and 20% of them were active in at least one assay; those are over-represented in the sample as a whole.
One number for each entry, in %.

>  <MOLECULE>
NNc1nc(-c2cccnc2)nc2c1sc(=S)n2-c1ccccc1

>  <growth (%)>
112

$$$$

Value sought for every listed molecule: growth.
1. S=c1sc2c(Cl)nc(-c3cccnc3)nc2n1-c1ccccc1
2. O=C(Nc1nc2cc(C(=O)N3CCN(C(c4ccccc4)c4ccccc4)CC3)ccc2o1)c1ccc(NC2CCCCC2)c([N+](=O)[O-])c1
3. CSc1nc2ccccc2cc1/C=[N+](\[O-])c1ccccc1
4. COc1cc(-c2csc(NC(=O)c3ccc(N4CCOCC4)c(C(F)(F)F)c3)n2)cc(OC)c1OC

Solution:
1: 41.2; 2: 64.9; 3: 45.9; 4: 35.1

Value sought for every listed molecule: growth.
1. COCCOc1cc2ncnc(N3CCN(c4ncc(S(=O)(=O)N5CCCCC5)cn4)CC3)c2cc1OCCOC
2. CCN(CC)CCn1c2ccc(O)cc2c2sc3cc(O)ccc3c(=O)c21

Solution:
1: 105; 2: 40.5

====

tested on: LOX IMVI melanoma; assay: NCI-60 one-dose screen, 48 h; conditions: 10 µM unless noted
The panel holds about 83,000 compounds, 20% with a hit somewhere; the sample as a whole holds those more often. Calls of active or inactive are those of the source. The calls were made as follows: active = growth percent below 10; inactive = the rest.
Pick one and only one: yes (1) (active), no (0) (inactive)

Solved cases (5 shown):
>  <COMPOUND>
CC1=NC2=Nn3c(c4cnn(-c5ccccc5)c4n/c3=N\N)NN2C(c2ccccc2)=C1

>  <GROUP>
no (0)

$$$$
>  <COMPOUND>
O=C(Nn1c2c(sc1=NC1CC1)C(=O)c1ccccc1C2=O)c1cc2ccc1CCc1ccc(cc1)CC2

>  <GROUP>
yes (1)

$$$$
>  <COMPOUND>
CC(=O)Oc1ccc(/C(=C(\C)c2ccc(Cl)cc2)c2ccc(OCCN3CCCCC3)cc2)cc1

>  <GROUP>
yes (1)

$$$$
>  <COMPOUND>
c1cc2c(ccc3[nH]c(-c4ccc5[nH]ncc5c4)c4c(c32)CCCC4)n1

>  <GROUP>
no (0)

$$$$
>  <COMPOUND>
OB1OCc2cc(/C=C/c3cccc(C(F)(F)F)c3)ccc21

>  <GROUP>
yes (1)

$$$$

Exercise: Record request — test call for `COc1c(B(O)O)cccc1-c1cc(C)c2c(ccc3[nH]ncc32)n1`
Solution: no (0)

Exercise: Record request — test call for `COc1cc(-c2cncn2-c2ccc(-c3nc4ccc(F)cc4s3)cc2)ccc1F`
Solution: no (0)

Exercise: Record request — test call for `Cc1ccc(CNc2ccc3nc(CCC4CCCCC4)[nH]c3c2)cc1`
Solution: no (0)

====

system: PC-3 prostate; test: NCI-60 one-dose screen, 48 h (100 = growth as untreated, 0 = no growth, -100 = all killed); conditions: 10 µM unless noted
The panel holds about 83,000 compounds, 20% with a hit somewhere; the sample as a whole holds those more often.
Please respond with reported growth for every item in the list.
One number for each entry, in %.

Here are 5 compounds together with their reported answers.
>  <COMPOUND>
COC(=O)[C@]1(C)CCC[C@]2(C)[C@H]3C[C@H]4C(C(C)C)=C[C@]3(CC[C@H]21)[C@@H]1C(=O)CC[C@H](OCCC#N)[C@@H]14

>  <growth (%)>
34.5

$$$$
>  <COMPOUND>
COc1cc2c(cc1OC)C(C)N(S(N)(=O)=O)CC2 (stereo not drawn)

>  <growth (%)>
89

$$$$
>  <COMPOUND>
Fc1cc2c(cc1Cl)N(c1ncnc3ccc(-c4ccc5n[nH]nc5c4)cc13)CC2

>  <growth (%)>
71.1

$$$$
>  <COMPOUND>
Cn1cc(C(=O)c2nc(-c3c[nH]c4ccccc34)no2)c2cc(F)ccc21

>  <growth (%)>
41.9

$$$$
>  <COMPOUND>
C=C1CC[C@@H]2[C@](C)(COC(C)=O)[C@H](OC(C)=O)CC[C@@]2(C)[C@@H]1CC(Nc1ccc(S(=O)(=O)Nc2ncccn2)cc1)C1=CCOC1=O (stereo partly drawn)

>  <growth (%)>
15.1

$$$$

Value sought for every listed compound: growth.
1. O=C(/C=C/c1cccc(Cl)c1)c1cccc(OCCCOc2cccc(C(=O)/C=C/c3cccc(Cl)c3)c2)c1
2. Nc1ncnc2c1C(c1ccc(Br)cc1)c1sc3c(F)cccc3c1O2 (stereo not drawn)

Solution:
1. 100
2. 87.4

Exercise: Look up growth: `COc1cc2oc(-c3cccc(NC(=O)c4ccccc4)c3)cc(=O)c2c(OC)c1OC`
Solution: 53.1
